Attribution: the supplement of paper PMC10567573

This section presents variants with their documented protein stability index values.
B1: STEAP1 (parent)
chain: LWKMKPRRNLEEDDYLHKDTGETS

variants of: B1; test: protein stability index of a GFP-peptide fusion (GPS, HEK-293T) (PSI 1-6); higher = more stable; settings: c terminus: a fixed tail appended;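 further: lentivirally expressed fusions sorted by FACS into six bins by GFP to DsRed ratio, PSI derived from sequencing read proportions per bin multiplied by bin number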
I'd appreciate a reply containing only the number, no unit.

Here are 5 variants together with their reported answers.
mutation-string: P6Q
protein stability index: 3.94
//
mutation-string: R8A
protein stability index: 4.61
//
mutation-string: K5W
protein stability index: 2.86
//
mutation-string: D14E
protein stability index: 4.63
//
mutation-string: D19H
protein stability index: 3.83

Measured protein stability index of T20D : 5.09

Measured protein stability index of L1V : 4.69
